molecular target: UniProt:B4URF0; parameters: species or system A/Jena/5258/2009(H1N1)
Sequence (B4URF0 whole entry): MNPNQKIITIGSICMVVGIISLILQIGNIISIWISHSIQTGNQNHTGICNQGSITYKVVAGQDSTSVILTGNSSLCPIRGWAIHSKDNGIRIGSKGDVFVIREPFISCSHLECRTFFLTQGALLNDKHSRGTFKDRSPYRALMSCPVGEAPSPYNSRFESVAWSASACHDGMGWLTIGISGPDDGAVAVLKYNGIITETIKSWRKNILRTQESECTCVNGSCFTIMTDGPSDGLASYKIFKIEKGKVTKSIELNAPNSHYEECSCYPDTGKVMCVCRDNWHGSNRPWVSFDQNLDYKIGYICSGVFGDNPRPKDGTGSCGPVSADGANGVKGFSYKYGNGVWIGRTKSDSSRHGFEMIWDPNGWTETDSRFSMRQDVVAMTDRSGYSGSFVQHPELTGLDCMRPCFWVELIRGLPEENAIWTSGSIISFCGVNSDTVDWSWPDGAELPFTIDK
Reported Metric: IC50 (nM)
# output: bare number, implied unit nM

For CCC(CC)O[C@@H]1C=C(C(=O)O)C[C@H](NC(C)=N)[C@H]1NC(C)=O the compound record lists IC50 as 0.45

====

Entries annotated with measured half-life
assay: in vivo; details: Sprague-Dawley, rat, iv, 10 mg/kg
Description: Half life in Sprague-Dawley rat at 10 mg/kg, iv by LC-MS/MS analysis
# output: bare number, implied unit h

CCC(CC)O[C@@H]1C=C(C(=O)O)C[C@H](NC(C)=N)[C@H]1NC(C)=O
0.567

Consider the additional molecule presented here.
For CCC(CC)O[C@@H]1C=C(C(=O)O)C[C@H](NC(=N)N)[C@H]1NC(C)=O the molecule record lists half-life as 1.57

These entries and their values trace back to ChEMBL document CHEMBL3120142.
